- assay remarks: chemical genetic growth profiling, strain panel (AID 1159580);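 note: tested at 20 µM; growth read once vehicle control cultures reached saturation at 30 °C; 1 = growth at the plate median or of vehicle wells; lower values mean less growth of the strain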
- test parameters: S. cerevisiae deletion strains, growth OD, locus YBR021W, strain FUR4, active compounds read low
The campaign covered roughly 5,500 compounds. About 2,000 (36%) were called active. Not shown: some 18% with an inconclusive outcome. This is one part of the list.
measured endpoint: normalized growth
The answer should be written as a number, with no unit following it.

stdin: Sample COC(=O)CCC(=O)O[C@H]1CCC2(C)C(CCC3C2C(=O)[C@@H](O)C2(C)C3CC3OC4(CCC(C)CO4)[C@@H](C)C32)C1 (stereo not given in full) — what was its normalized growth?
stdout: 1.01

stdin: Sample NS(=O)(=O)c1cc2c(cc1Cl)NC(C1CC3C=CC1C3)NS2(=O)=O (stereo not given) — what was its normalized growth?
stdout: 1.03

###

- assay remarks: chemical genetic growth profiling, strain panel (AID 1159580)
- test parameters: S. cerevisiae deletion strains, growth OD, locus YCL061C, strain MRC1
Out of some 5,500 compounds screened, about 2,000 (36%) were called active. Another 18% or so got no clear call; they are omitted. Rule as the data show it: active = normalized growth mostly below about 0.91 (no sharp cut-off); inconclusive = no clear call, values can overlap the other calls; inactive = mostly above about 0.92. The list shows a part of the results.
The reply should name one outcome from active, inactive

Example results:
# molecule, discrete label
rows = [
    ("C[C@@H]1O[C@@H](O[C@H]2C[C@@H](O)[C@]3(CO)C4C(CC[C@]3(O)C2)[C@@]2(O)CC[C@H](C3=CC(=O)OC3)[C@@]2(C)C[C@H]4O)[C@H](O)[C@H](O)[C@H]1O (stereo partly specified)", "inactive"),
    ("CCCCCC1C(=O)CCC1CC(=O)OC (stereo unspecified)", "inactive"),
    ("Nc1cc(-c2ccncc2)c[nH]c1=O", "active"),
    ("NC(Cc1ccc(F)cc1)C(=O)O (stereo unspecified)", "inactive"),
    ("Cc1ncc([N+](=O)[O-])n1CC(C)O (stereo unspecified)", "inactive"),
]

stdin: Outcome logged for `CC(=O)c1ccc(-c2ccc(Cl)c(Cl)c2)o1` in this assay:
stdout: active

stdin: Outcome logged for C=C1C2CC[C@@]3(C)[C@H](c4ccoc4)OC(=O)C[C@]13O[C@H]1CC(O)C(C)(C)C(CC(=O)OC)[C@@]21C (stereo partly specified) in this assay:
stdout: inactive

stdin: Outcome logged for `Nc1ccncc1` in this assay:
stdout: inactive

stdin: Outcome logged for `CN(C)C(=O)Nc1ccc(Cl)c(Cl)c1` in this assay:
stdout: inactive

stdin: Outcome logged for `N[C@H](Cc1cc(I)c(Oc2ccc(O)c(I)c2)c(I)c1)C(=O)O` in this assay:
stdout: inactive

stdin: Outcome logged for `C[C@H](N)[C@H](O)c1cccc(O)c1` in this assay:
stdout: inactive

###

- assay remarks: chemical genetic growth profiling, strain panel (AID 1159580)
- test parameters: S. cerevisiae deletion strains, growth OD, locus YLR268W, strain sec22, active compounds read low
In all, about 5,500 compounds went through this assay and about 2,000 (36%) were called active. About 18% were inconclusive and are not listed. Some of the results follow. Where a SMILES comes first, the peptide text is derived from it.
measured endpoint: normalized growth

# molecule, normalized growth
records = [
    ("CCCCC[C@H](CC(=O)NO)C(=O)N[C@H](C(=O)N1CCC[C@H]1CO)C(C)C", "1.03 (inactive)"),
    ("Cc1cc(C)cc(OCC2CNC(=O)O2)c1 (centres undefined)", "1.01 (inactive)"),
    ("C[C@H](CCC(=O)O)[C@H]1CCC2C3C(CC[C@@]21C)[C@@]1(C)CC[C@@H](O)C[C@H]1C[C@@H]3O (some centres undefined)", "0.929 (inactive)"),
    ("NCCCCC(N)C(=O)NC(Cc1ccc(O)cc1)C(=O)NC(CCCCN)C(=O)O (stereo not drawn) (H-Lys-Tyr-Lys-OH; configuration not given here)", "1.01 (inactive)"),
    ("COc1cc(OC)c(OC)cc1C=O", "0.97 (inactive)"),
]

stdin: Sample `C=C[C@H]1CN2CC[C@H]1C[C@@H]2[C@H](O)c1ccnc2ccccc12` — what was its normalized growth?
stdout: 0.937 (inactive)

stdin: Sample CC(CCC(=O)O)[C@H]1CCC2C3CC[C@@H]4C[C@H](O)CC[C@]4(C)C3C[C@H](O)[C@@]21C (some centres undefined) — what was its normalized growth?
stdout: 0.989 (inactive)

stdin: Sample COC(=O)CCC(C)C1CCC2C3CC[C@@H]4C[C@H](O)CC[C@]4(C)C3C[C@H](O)[C@]12C (some centres undefined) — what was its normalized growth?
stdout: 1 (inactive)

stdin: Sample CC[C@H](CCC(C)[C@H]1CCC2C3CCC4C[C@@H](O)CC[C@]4(C)C3CC[C@@]21C)C(C)C (some centres undefined) — what was its normalized growth?
stdout: 1.02 (inactive)

###

- assay remarks: chemical genetic growth profiling, strain panel (AID 1159580)
- test parameters: S. cerevisiae deletion strains, growth OD, locus YBR171W, strain sec66, active compounds read low
The campaign covered roughly 5,500 compounds. About 2,000 (36%) were called active. Another 18% or so got no clear call; they are omitted. This is one part of the list.
Define the label as fulfilled when normalized growth is strictly less than 1 and as not fulfilled in all remaining cases.

Example results:
# smiles notation, discrete label
records = [
    ("CN(C(=O)CN(CCO)CC(=O)N(C)C(C)(C)Cc1ccccc1)C(C)(C)Cc1ccccc1", "not fulfilled"),
    ("CN(C)N=Nc1nc[nH]c1C(N)=O", "fulfilled"),
]

--- query ---
stdin: Could you please tell me whether normalized growth recorded for `CCN(CCCc1ccccc1)CCCc1ccccc1` is less than 1?
stdout: fulfilled

###

- assay remarks: chemical genetic growth profiling, strain panel (AID 1159580);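 note: tested at 20 µM; growth read once vehicle control cultures reached saturation at 30 °C; 1 = growth at the plate median or of vehicle wells; lower values mean less growth of the strain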
- test parameters: S. cerevisiae deletion strains, growth OD, locus YGR252W, strain gcn5, active compounds read low
The whole screen tested about 5,500 compounds, of which about 2,000 (36%) were called active. About 18% were inconclusive and are not listed. The list shows a part of the results.
Define the label as YES when normalized growth is strictly less than 1 and as NO in all remaining cases.

Example results:
# molecule, discrete label
data = [
    ("CN(C)CCC(c1ccc(Br)cc1)c1ccccn1 (stereo not drawn)", "NO"),
    ("COc1cc(OC)c(OC)cc1C=O", "NO"),
    ("O=C(Nc1ccccc1)c1ccccc1O", "YES"),
    ("CSc1ccc2c(c1)N(CCC1CCCCN1C)c1ccccc1S2 (stereo not drawn)", "YES"),
    ("N#C/C(=C\\c1cccc(O)c1)C(=O)O", "NO"),
]

stdin: Could you please tell me whether normalized growth recorded for NS(=O)(=O)c1cc2c(cc1Cl)NC(C1CC3C=CC1C3)NS2(=O)=O (stereo not drawn) is less than 1?
stdout: NO

###

- assay remarks: chemical genetic growth profiling, strain panel (AID 1159580);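 note: tested at 20 µM; growth read once vehicle control cultures reached saturation at 30 °C; 1 = growth at the plate median or of vehicle wells; lower values mean less growth of the strain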
- test parameters: S. cerevisiae deletion strains, growth OD, locus YNL233W, strain BNI4, active compounds read low
Screen size: about 5,500 compounds; about 2,000 (36%) were called active. Inconclusive results (about 18%) are left out. This is one part of the list.
Reported normalized growth by item:
The answer should be written as a number, with no unit following it.

Consider the following illustrative entries.
# compound, normalized growth
rows = [
    ("NC(Cc1ccc(F)cc1)C(=O)O (stereo not given)", 1.02),
    ("COc1cc2c(cc1O)C(Cc1ccc(O)cc1)N(C)CC2 (stereo not given)", 1.01),
    ("C=C1[C@H]2CC[C@@]3(C)[C@H](c4ccoc4)OC(=O)C[C@]13O[C@H]1C[C@H](O)C(C)(C)[C@H](CC(=O)OC)[C@]12C", 0.988),
    ("COc1cc2c(cc1/C=C/C(=O)c1cc(OC)c(OC)cc1OC)OCO2", 1.02),
    ("C[C@@H]1CC2C3C[C@H](F)C4=CC(=O)C=C[C@]4(C)[C@@]3(F)[C@@H](O)C[C@]2(C)[C@@]1(O)C(=O)COC(=O)C(C)(C)C (stereo not given in full)", 1.01),
    ("c1ccc2c(c1)CN1CCCC1=N2", 1),
    ("CC1CC2C3CC(F)C4=CC(=O)C=CC4(C)C3(F)C(O)CC2(C)C1C(=O)COC(=O)C(C)(C)C (stereo not given)", 0.919),
    ("COc1cc(OC)c(OC)cc1C=O", 1.06),
    ("C=C1C2CCC3(C)C(c4ccoc4)OC(=O)CC13OC1CC(OC(C)=O)C(C)(C)C(CC(=O)OC)C12C (stereo not given)", 1),
]

Shift focus to the following entry.
stdin: Sample `N[C@H](Cc1ccccc1)C(=O)O` — what was its normalized growth?
stdout: 1.01

###

- assay remarks: chemical genetic growth profiling, strain panel (AID 1159580);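 note: tested at 20 µM; growth read once vehicle control cultures reached saturation at 30 °C; 1 = growth at the plate median or of vehicle wells; lower values mean less growth of the strain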
- test parameters: S. cerevisiae deletion strains, growth OD, locus YGL227W, strain vid30, active compounds read low
The campaign covered roughly 5,500 compounds. About 2,000 (36%) were called active. Another 18% or so got no clear call; they are omitted. This is one part of the list.
measured endpoint: normalized growth
The answer should be written as a number, with no unit following it.

Consider the following illustrative entries.
# compound, normalized growth
data = [
    ("CN(C)CCOC(=O)COc1ccc(Cl)cc1", 0.965),
    ("COc1c2ccccc2nc2occc12", 0.989),
    ("CCN(CC)CCOC(=O)C(c1ccccc1)c1ccccc1", 0.961),
    ("COC(=O)CCCOc1ccc(Cl)cc1Cl", 0.95),
    ("OC[C@H]1OC([S-])[C@H](O)[C@@H](O)[C@@H]1O.[Au+] (some centres not stated)", 1.01),
    ("COc1c2ccoc2nc2c(OC)c(OCC(O)C(C)(C)O)ccc12 (configuration not stated)", 1.02),
]

Shift focus to the following entry.
stdin: Sample CN(C)CCOC(=O)C(c1ccccc1)C1(O)CCCC1 (configuration not stated) — what was its normalized growth?
stdout: 0.988

FYI, the data here is from PubChem BioAssay AID1159580.
